Origin of values: ChEMBL document CHEMBL5058577

# Tested on: Fibroblast
# Assay Remarks: Multiplex assay against human fibroblast
# Assay type: toxicity, cell-based
# Assay Context: 48 h, 1 µM, compound concentration 1 uM, replicate 2
Endpoint: Population Normal (%)

O=C(NCCN1CCC(n2c(=O)[nH]c3cc(Cl)ccc32)CC1)c1ccc(F)cc1 [HALOPEMIDE] | 95
CCCCC(=O)N(Cc1ccc(-c2ccccc2-c2nnn[nH]2)cc1)[C@H](C(=O)O)C(C)C | 96
Cc1sc2c(c1C)C(c1ccc(Cl)cc1)=N[C@@H](CC(=O)NCCCCCCCCNC(=O)COc1cccc3c1C(=O)N(C1CCC(=O)NC1=O)C3=O)c1nnc(C)n1-2 (stereo not given in full) | 91
NCCc1cn(S(=O)(=O)c2c(Cl)nc3sccn23)c2ccccc12.O=C(O)C(=O)O | 93
Cc1noc(-c2ccc(-c3ccc(CC(=O)O)cc3)cc2)c1NC(=O)O[C@H](C)c1ccccc1Cl | 97
CN(C)C(=O)Cn1cc(-c2ccc(-c3cncc4ccccc34)cc2)cn1 | 92
CC(C)(C)c1cc(NC(=O)Nc2ccc(-c3cn4c(n3)sc3cc(OCCN5CCOCC5)ccc34)cc2)no1 [QUIZARTINIB] | 96
Cc1c(CC(=O)O)c2cccnc2n1Cc1ccc(S(C)(=O)=O)cc1C(F)(F)F [FEVIPIPRANT] | 93
CC(=O)Nc1cccc2c1c(Sc1ccc(Cl)cc1)c(C)n2CC(=O)O [AZD1981] | 96
COc1cccc2c1c(NS(=O)(=O)c1ccc(Cl)s1)nn2Cc1cccc(CNC(=O)C(C)(C)O)c1 | 97
C[C@H](N)COC(=O)[C@@H](CCCCN)NC(=O)Cc1c(-c2ccc3ccccc3c2)[nH]c2c1ccc1ccccc12 | 97
CCCCC1=NC2(CCCC2)C(=O)N1Cc1ccc(-c2ccccc2-c2nnn[nH]2)cc1 [IRBESARTAN] | 97
Br.CS(=O)(=O)Nc1c(O)ccc2c1CCCC2C1=NCCN1 (stereo not given) | 94
O=C(CCCc1ccccc1)Nc1nc2ccccc2c(=O)s1 | 97
COC[C@@H](c1ccc(C(F)(F)F)cc1)N1CCN(C2(C)CCN(C(=O)c3c(C)ncnc3C)CC2)C[C@@H]1C.O=C(O)/C=C\C(=O)O [VICRIVIROC MALEATE] | 95
CC(C)c1noc(N2CCC(COc3ccc(-c4ccc(S(C)(=O)=O)cc4)nc3)CC2)n1 [GSK-1292263] | 91
CCCOc1ccc2[nH]cc(C3=CCNCC3)c2n1.Cl | 95
Cc1cnc(-c2cc(N3CCN(C(=O)CCS(C)(=O)=O)CC3)ncc2Cl)c(C)c1 | 94
CC(/C=C1\SC(=S)N(CCCC(=O)Nc2ccc(C(=O)O)c(O)c2)C1=O)=C\c1ccccc1 | 98
CCCCCC(O)/C=C/[C@H]1C(=O)CC(O)C1C/C=C\CCCC(=O)O (stereo not given in full) | 97
O=C1[C@H](Cc2ccc(O)cc2)N2C(=O)CCN(C(=O)NCc3ccccc3)[C@H]2CN1Cc1cccc2ccccc12 | 94
CC[C@@H](C)Nc1nc(C)nc2c(-c3ccc(OC)nc3C)c(C)nn12 [PEXACERFONT] | 98
CN[C@@H](C)C(=O)N[C@H](C(=O)N1CCC[C@H]1C(=O)Nc1snnc1-c1ccccc1)C1CCCCC1 [GDC-0152] | 94
Cl.N=C(N)NC(=O)Cc1c(Cl)cccc1Cl [GUANFACINE HYDROCHLORIDE] | 96
N#Cc1cc(F)cc(-c2nc(-c3ccc(F)cn3)no2)c1 | 94

----------
# System: U2OS
# Assay Remarks: Multiplex assay against U2OS
# Format: toxicity, cell-based
# Assay Context: human, 48 h, 10 µM, compound concentration 10 uM, replicate 1
Entries and their Population Membrane Permeable-Phenotype (%)
Endpoint: Population Membrane Permeable-Phenotype (%)

CCCCC1=NC2(CCCC2)C(=O)N1Cc1ccc(-c2ccccc2-c2nnn[nH]2)cc1 | 7%
CC(C)c1noc(N2CCC(COc3ccc(-c4ccc(S(C)(=O)=O)cc4)nc3)CC2)n1 | 6%
CC(C)COc1ccc(CNC(=O)N(Cc2ccc(F)cc2)C2CCN(C)CC2)cc1 | 40%
CCCCCC(O)/C=C/[C@H]1C(=O)CC(O)C1C/C=C\CCCC(=O)O (some centres undefined) | 6%
Cc1cccc(NC(=O)CN2CCC(c3ccccn3)CC2)c1.Cl.Cl | 6%
COc1cccc2c1c(NS(=O)(=O)c1ccc(Cl)s1)nn2Cc1cccc(CNC(=O)C(C)(C)O)c1 | 5%
CCc1cc2cc(NS(=O)(=O)c3ccc(C#N)cc3)ccc2n(CC)c1=O | 6%
CCCCC(=O)N(Cc1ccc(-c2ccccc2-c2nnn[nH]2)cc1)[C@H](C(=O)O)C(C)C | 6%
C[C@H](N)COC(=O)[C@@H](CCCCN)NC(=O)Cc1c(-c2ccc3ccccc3c2)[nH]c2c1ccc1ccccc12 | 6%
CN(C)C(=O)Cn1cc(-c2ccc(-c3cncc4ccccc34)cc2)cn1 | 15%
O=C(NCCN1CCC(n2c(=O)[nH]c3cc(Cl)ccc32)CC1)c1ccc(F)cc1 [HALOPEMIDE] | 10%
Cl.NCCc1ccc(O)c(O)c1 [DOPAMINE HYDROCHLORIDE] | 7%
Cc1noc(-c2ccc(-c3ccc(CC(=O)O)cc3)cc2)c1NC(=O)O[C@H](C)c1ccccc1Cl | 7%
Cc1cnc(-c2cc(N3CCN(C(=O)CCS(C)(=O)=O)CC3)ncc2Cl)c(C)c1 | 4%
N#Cc1c(Oc2cccc(OS(=O)(=O)CCCC(F)(F)F)c2)cccc1C(F)(F)F | 10%
Cc1c(CC(=O)O)c2cccnc2n1Cc1ccc(S(C)(=O)=O)cc1C(F)(F)F | 4%
Cl.N=C(N)NC(=O)Cc1c(Cl)cccc1Cl [GUANFACINE HYDROCHLORIDE] | 8%
N#Cc1cc(F)cc(-c2nc(-c3ccc(F)cn3)no2)c1 | 6%
NCCc1cn(S(=O)(=O)c2c(Cl)nc3sccn23)c2ccccc12.O=C(O)C(=O)O | 25%

----------
# Test system: Fibroblast
# Assay Remarks: Multiplex assay against human fibroblast
# Assay type: toxicity, cell-based
# Assay Context: 48 h, 10 µM, compound concentration 10 uM, replicate 2
Kind request: treat 7% as inclusive, so Population Mitochondria Different-Phenotype (%) at 7% or higher is True, anything lower is False.

CC(/C=C1\SC(=S)N(CCCC(=O)Nc2ccc(C(=O)O)c(O)c2)C1=O)=C\c1ccccc1 | False
COc1cccc2c1c(NS(=O)(=O)c1ccc(Cl)s1)nn2Cc1cccc(CNC(=O)C(C)(C)O)c1 | False
CC(=O)Nc1cccc2c1c(Sc1ccc(Cl)cc1)c(C)n2CC(=O)O | False
Cc1noc(-c2ccc(-c3ccc(CC(=O)O)cc3)cc2)c1NC(=O)O[C@H](C)c1ccccc1Cl | True
O=C1[C@H](Cc2ccc(O)cc2)N2C(=O)CCN(C(=O)NCc3ccccc3)[C@H]2CN1Cc1cccc2ccccc12 | True
Cc1cnc(-c2cc(N3CCN(C(=O)CCS(C)(=O)=O)CC3)ncc2Cl)c(C)c1 | False
Br.CS(=O)(=O)Nc1c(O)ccc2c1CCCC2C1=NCCN1 (centres undefined) | True
CN[C@@H](C)C(=O)N[C@H](C(=O)N1CCC[C@H]1C(=O)Nc1snnc1-c1ccccc1)C1CCCCC1 | True

----------
# Test system: Fibroblast
# Assay Remarks: Multiplex assay against human fibroblast
# Assay type: toxicity, cell-based
# Assay Context: 48 h, 1 µM, compound concentration 1 uM, replicate 1
Endpoint: Population Tubulin-Different-Phenotype (%)

N#Cc1c(Oc2cccc(OS(=O)(=O)CCCC(F)(F)F)c2)cccc1C(F)(F)F | 42%
CCCCCC(O)/C=C/[C@H]1C(=O)CC(O)C1C/C=C\CCCC(=O)O (some centres undefined) | 19%
CN1CCN(c2cc(-c3ccccc3)nc(N)n2)CC1 | 20%
Br.CS(=O)(=O)Nc1c(O)ccc2c1CCCC2C1=NCCN1 (centres undefined) | 24%
CC[C@@H](C)Nc1nc(C)nc2c(-c3ccc(OC)nc3C)c(C)nn12 | 30%
NCCc1cn(S(=O)(=O)c2c(Cl)nc3sccn23)c2ccccc12.O=C(O)C(=O)O | 46%
O=C(CCCc1ccccc1)Nc1nc2ccccc2c(=O)s1 | 32%
CCCOc1ccc2[nH]cc(C3=CCNCC3)c2n1.Cl | 23%
CC(/C=C1\SC(=S)N(CCCC(=O)Nc2ccc(C(=O)O)c(O)c2)C1=O)=C\c1ccccc1 | 31%
COc1ccccc1N1CCN(C[C@@H](C(=O)NC(C)(C)C)c2ccccc2)CC1.Cl.Cl | 34%
Cc1onc(-c2ccccc2Cl)c1C(=O)N(C)c1ccc(Cl)cc1 | 22%
CCc1cc2cc(NS(=O)(=O)c3ccc(C#N)cc3)ccc2n(CC)c1=O | 27%
Cc1noc(-c2ccc(-c3ccc(CC(=O)O)cc3)cc2)c1NC(=O)O[C@H](C)c1ccccc1Cl | 16%
CCCCC(=O)N(Cc1ccc(-c2ccccc2-c2nnn[nH]2)cc1)[C@H](C(=O)O)C(C)C | 17%
Cc1cnc(-c2cc(N3CCN(C(=O)CCS(C)(=O)=O)CC3)ncc2Cl)c(C)c1 | 33%
COc1cccc2c1c(NS(=O)(=O)c1ccc(Cl)s1)nn2Cc1cccc(CNC(=O)C(C)(C)O)c1 | 30%
CC(=O)Nc1cccc2c1c(Sc1ccc(Cl)cc1)c(C)n2CC(=O)O | 33%
N#Cc1cc(F)cc(-c2nc(-c3ccc(F)cn3)no2)c1 | 23%
CC(C)(C)c1cc(NC(=O)Nc2ccc(-c3cn4c(n3)sc3cc(OCCN5CCOCC5)ccc34)cc2)no1 | 38%
Cl.N=C(N)NC(=O)Cc1c(Cl)cccc1Cl [GUANFACINE HYDROCHLORIDE] | 32%
CC(C)COc1ccc(CNC(=O)N(Cc2ccc(F)cc2)C2CCN(C)CC2)cc1 | 45%
CCCCC1=NC2(CCCC2)C(=O)N1Cc1ccc(-c2ccccc2-c2nnn[nH]2)cc1 | 31%
CN[C@@H](C)C(=O)N[C@H](C(=O)N1CCC[C@H]1C(=O)Nc1snnc1-c1ccccc1)C1CCCCC1 | 48%
O=C1[C@H](Cc2ccc(O)cc2)N2C(=O)CCN(C(=O)NCc3ccccc3)[C@H]2CN1Cc1cccc2ccccc12 | 54%
Cl.NCCc1ccc(O)c(O)c1 [DOPAMINE HYDROCHLORIDE] | 28%
CC(C)c1noc(N2CCC(COc3ccc(-c4ccc(S(C)(=O)=O)cc4)nc3)CC2)n1 | 22%
C[C@H](N)COC(=O)[C@@H](CCCCN)NC(=O)Cc1c(-c2ccc3ccccc3c2)[nH]c2c1ccc1ccccc12 | 26%
CN(C)C(=O)Cn1cc(-c2ccc(-c3cncc4ccccc34)cc2)cn1 | 57%
Cc1sc2c(c1C)C(c1ccc(Cl)cc1)=N[C@@H](CC(=O)NCCCCCCCCNC(=O)COc1cccc3c1C(=O)N(C1CCC(=O)NC1=O)C3=O)c1nnc(C)n1-2 (some centres undefined) | 33%
